Target: EPHB1 (UniProt P54762)
Sequence (P54762 whole entry, looked up): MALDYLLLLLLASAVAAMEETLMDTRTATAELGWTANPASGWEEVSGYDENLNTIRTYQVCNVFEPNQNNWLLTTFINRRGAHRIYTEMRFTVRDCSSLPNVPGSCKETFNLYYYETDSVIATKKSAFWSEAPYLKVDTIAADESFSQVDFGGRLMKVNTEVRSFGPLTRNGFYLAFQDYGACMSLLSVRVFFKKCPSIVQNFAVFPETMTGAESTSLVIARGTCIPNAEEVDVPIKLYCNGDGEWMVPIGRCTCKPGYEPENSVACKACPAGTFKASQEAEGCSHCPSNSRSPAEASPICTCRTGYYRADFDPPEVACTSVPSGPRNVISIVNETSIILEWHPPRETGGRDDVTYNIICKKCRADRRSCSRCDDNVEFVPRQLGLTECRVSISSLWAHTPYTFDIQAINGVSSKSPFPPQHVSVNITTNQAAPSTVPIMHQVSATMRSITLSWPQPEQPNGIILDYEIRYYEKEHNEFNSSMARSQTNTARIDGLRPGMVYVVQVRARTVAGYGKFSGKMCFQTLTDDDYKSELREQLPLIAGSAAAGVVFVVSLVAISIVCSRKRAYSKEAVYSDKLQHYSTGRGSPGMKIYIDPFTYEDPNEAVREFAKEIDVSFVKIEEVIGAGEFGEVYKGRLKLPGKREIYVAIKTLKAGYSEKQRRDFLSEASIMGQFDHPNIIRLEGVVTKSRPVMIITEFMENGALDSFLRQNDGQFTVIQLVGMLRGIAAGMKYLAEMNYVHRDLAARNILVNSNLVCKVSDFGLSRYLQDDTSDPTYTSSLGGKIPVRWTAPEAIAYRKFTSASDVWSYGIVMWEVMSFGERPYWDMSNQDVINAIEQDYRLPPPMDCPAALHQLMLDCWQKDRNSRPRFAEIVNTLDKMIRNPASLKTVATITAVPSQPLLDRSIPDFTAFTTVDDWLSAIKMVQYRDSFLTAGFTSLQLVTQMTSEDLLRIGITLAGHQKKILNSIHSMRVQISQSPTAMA
Assay: phosphorylation enrichment, bacterial display (enrichment ratio); higher = better substrate or ligand; peptides without Tyr show the background;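 further: 11-residue human phosphosite peptides and single-mutation variants displayed on the E. coli surface, counted by deep sequencing, each peptide's frequency after selection divided by its frequency in the unselected input library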;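 further: frequency after pTyr selection over input frequency; kinase dosed for 20-30% of maximal phosphorylation in three min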
readout label: phosphorylation enrichment

Please review the following examples before continuing.
{"residue codes": "AGQKDYDRLRP [RAC3_Y64_E62K]", "assayed target": "EPHB1 (UniProt P54762)", "test value": 0.501}
{"residue codes": "RSSKMYFKTRS [LPL_Y329_L330F]", "assayed target": "EPHB1 (UniProt P54762)", "test value": 0.685}
{"residue codes": "PVKTPYSLKRW [BMPR2_Y979_R974P]", "assayed target": "EPHB1 (UniProt P54762)", "test value": 0.499}

Form field - read-out: phosphorylation enrichment; system: EPHB1 (UniProt P54762); submitted item: DSEIRYLSADS [TTF1_Y476]
0.489
